Source of measurements: patent US20220396632A1

- measuredOn: T1, SulfoCCK biotin peptide (human)
- T1 construct: also called sulfotyrosine CCK peptide
- T1 peptide: SHRISDRD[sY]MGWMDFGGK(Biotin)
- assayDetails: ELISA, 50 nM mAb
Non-standard residues stand in square brackets, D forms with d. No end group written: not given here. *: point of attachment. Biotin = O=C1N[C@H]2[C@H](CS[C@H]2CCCCC(=O)*)N1; sY = N[C@@H](Cc1ccc(OS(=O)(=O)O)cc1)C(=O)O
valueType: binding normalized to PSGL-1
Please state the value as a number alone, without comment.

1. 05A11 (antibody, IgG4, V domains shown) VH: EVKLLESGGGVVQPGRSLRLSCAASGFSFSAYGMHWVRQAPGKGLEWVSSISGSGDGTYYADSVKGRFTISRDNSKNTLYLQMNSLRAEDAAVYYCAKSVKGRGYFFDYWGQGTLVTVSS VL: DIVLTQSPSSLSASVGDRVTITCRASQSISSYLNWYQQKPGKAPKLLIYAASSLQSGVPSRFSGSGSGTDFTLSISNLQPEDFATYYCQQAYKFPRSFGGGTKVEFK
0.41

Now for a further binder.
// lookup binding normalized to PSGL-1 for 10B03 (antibody, IgG4, V domains shown) VH: EVKLLESGGDLVQPGGSLRLSCAASGLTFSNYAMSWVRQAPGKGLEWVSAISGSGDNTYYADSVKGRFTISRDNSKNTLYLQMNSLRADDTAVYFCAKRDSWGQGTLVTVSS VL: QAVLTQPPSASGTPGQRVTISCSGSTSNIGSRDVYWYQHLPGTAPKLVIYRNDQRPSGVPDRFSGSKSGTSASLAISGLRSEDDADYYCAVWDNSLRGRVFGGGTKLTVL
0.56
